test: Tmax in monkey at 5 mg/kg, po; type: ADME, organism-based, Macaca mulatta; parameters: dose 5 mg/kg, route oral; settings: rhesus monkey, in vivo
observation type: Tmax (h)
I only need the number, in h, no unit after it.

What value of Tmax has been reported for the following compound? CC(C)(C)CC[C@@]1(C)C(=O)C(C2=NS(=O)(=O)c3cc(NS(C)(=O)=O)ccc3N2)=C([O-])c2ccccc21.[Na+]
2.7

###

experiment: Plasma clearance in dog at 2.5 mg/kg, iv; format: ADME, organism-based, Canis lupus familiaris; set-up: dose 2.5 mg/kg, route intravenous
observation type: clearance (mL/min/kg)
Please reply with the bare figure in mL/min/kg and do not write the unit itself.

Which clearance reading was recorded for the molecule CC(C)(C)CC[C@@]1(C)C(=O)C(C2=NS(=O)(=O)c3cc(NS(C)(=O)=O)ccc3N2)=C([O-])c2ccccc21.[Na+] ?
0.333

###

assay: Elimination half life in dog at 2.5 mg/kg, iv; format: ADME, organism-based, Canis lupus familiaris; design: dose 2.5 mg/kg, route intravenous; settings: in vivo, read-out: beta t1/2 (converted)
observation type: half-life (h)
Number only, in h; omit the unit.

What does the record list as half-life for CC(C)(C)CC[C@@]1(C)C(=O)C(C2=NS(=O)(=O)c3cc(NS(C)(=O)=O)ccc3N2)=C([O-])c2ccccc21.[Na+] ?
12.3

###

experiment: AUC in dog at 5 mg/kg, iv; assay type: ADME, organism-based, Canis lupus familiaris; design: dose 5 mg/kg, route intravenous; settings: plasma
observation type: AUC (ng·h/mL)
Entry rule: numbers only, all in ng·h/mL.

Quick one: AUC of CC(C)CC[C@@]1(C)C(=O)C(C2=NS(=O)(=O)c3cc(NS(C)(=O)=O)ccc3N2)=C([O-])c2ccccc21.[Na+] ?
11800

###

Each entry below lists one item and its recorded AUC value.
assay: AUC in monkey at 5 mg/kg, iv; assay type: ADME, organism-based, Macaca mulatta; set-up: dose 5 mg/kg, route intravenous; details: rhesus monkey, plasma
Note: unit ng·h/mL is implicit; provide only the numeric part.

INSERT INTO results (test_smiles, unit_text, endpoint_result) VALUES
  ('CC(C)CC[C@@]1(C)C(=O)C(C2=NS(=O)(=O)c3cc(NS(C)(=O)=O)ccc3N2)=C([O-])c2ccccc21.[Na+]', 'ng·h/mL', 10200);

As a next step, examine the molecule that follows.
Which AUC is listed for CC(C)(C)CC[C@@]1(C)C(=O)C(C2=NS(=O)(=O)c3cc(NS(C)(=O)=O)ccc3N2)=C([O-])c2ccccc21.[Na+] ?
10200

###

test: Volume of distribution at steady state in monkey at 5 mg/kg, iv; assay type: ADME, organism-based, Macaca mulatta; set-up: dose 5 mg/kg, route intravenous; conditions: rhesus monkey, in vivo, read-out: Vdss
Reported Vd is given for each of the following compounds.
Please answer using the number first and the unit second.

INSERT INTO results (test_smiles, observation_type, endpoint_result) VALUES
  ('CC(C)(C)CC[C@@]1(C)C(=O)C(C2=NS(=O)(=O)c3cc(NS(C)(=O)=O)ccc3N2)=C([O-])c2ccccc21.[Na+]', 'Vd', '0.77 L/kg');

Which Vd is listed for CC(C)CC[C@@]1(C)C(=O)C(C2=NS(=O)(=O)c3cc(NS(C)(=O)=O)ccc3N2)=C([O-])c2ccccc21.[Na+] ?
0.19 L/kg

###

experiment: Terminal phase volume of distribution in monkey at 5 mg/kg, iv; type: ADME, organism-based, Macaca mulatta; set-up: dose 5 mg/kg, route intravenous; conditions: rhesus monkey, in vivo, read-out: Vbeta
observation type: Vd (L/kg)
Report the value in L/kg with no unit label.

INSERT INTO measurements (test_smiles, observation_type, endpoint_result) VALUES
  ('CC(C)(C)CC[C@@]1(C)C(=O)C(C2=NS(=O)(=O)c3cc(NS(C)(=O)=O)ccc3N2)=C([O-])c2ccccc21.[Na+]', 'Vd', 1.77);

So what does the record say about Vd for CC(C)CC[C@@]1(C)C(=O)C(C2=NS(=O)(=O)c3cc(NS(C)(=O)=O)ccc3N2)=C([O-])c2ccccc21.[Na+] ?
0.5

###

experiment: Plasma concentration in rat at 5 mg/kg, po after 6 hrs; type: ADME, organism-based; parameters: dose 5 mg/kg, route oral
We begin with a simple list: items and their reported concentration at 6 h.
Kindly answer with a numeric value in nM, unit omitted.

INSERT INTO results (test_smiles, unit_text, endpoint_result) VALUES
  ('CC(C)CC[C@@]1(C)C(=O)C(C2=NS(=O)(=O)c3cc(NS(C)(=O)=O)ccc3N2)=C(O)c2ccccc21', 'nM', 445);

For the next question, use this molecule.
Quick one: concentration at 6 h of CC(C)(C)CC[C@@]1(C)C(=O)C(C2=NS(=O)(=O)c3cc(NS(C)(=O)=O)ccc3N2)=C(O)c2ccccc21 ?
2240

###

assay: Terminal phase volume of distribution in rat at 5 mg/kg, iv; assay type: ADME, organism-based; set-up: dose 5 mg/kg, route intravenous; details: in vivo, read-out: Vbeta
observation type: Vd (L/kg)
Unit L/kg implied. Number only.

INSERT INTO results (test_smiles, observation_type, endpoint_result) VALUES
  ('CC(C)CC[C@@]1(C)C(=O)C(C2=NS(=O)(=O)c3cc(NS(C)(=O)=O)ccc3N2)=C([O-])c2ccccc21.[Na+]', 'Vd', 1.97);

# query: Vd of entry CC(C)(C)CC[C@@]1(C)C(=O)C(C2=NS(=O)(=O)c3cc(NS(C)(=O)=O)ccc3N2)=C([O-])c2ccccc21.[Na+]
2.39

###

experiment: Plasma clearance in dog at 5 mg/kg, iv; format: ADME, organism-based, Canis lupus familiaris; design: dose 5 mg/kg, route intravenous
observation type: clearance (mL/min/kg)
The answer is to be given in mL/min/kg; state only the numeric part.

Quick check: clearance of CC(C)CC[C@@]1(C)C(=O)C(C2=NS(=O)(=O)c3cc(NS(C)(=O)=O)ccc3N2)=C([O-])c2ccccc21.[Na+] ?
7.33

###

assay: Inhibition of HCV isolate H77 NS5B polymerase after 3 hrs by scintillation counting
observation type: IC50 (nM)
Entry rule: numbers only, all in nM.

INSERT INTO results (test_smiles, unit_text, endpoint_result) VALUES
  ('CC(C)(C)CC[C@]1(C)C(=O)C(C2=NS(=O)(=O)c3cc(NS(C)(=O)=O)ccc3N2)=C(O)c2ccccc21', 'nM', 444);

Value lookup for IC50; key = CC(C)CC[C@]1(C)C(=O)C(C2=NS(=O)(=O)c3cc(NS(C)(=O)=O)ccc3N2)=C(O)c2ccccc21
624

Then this molecule: CC(C)(C)CC[C@@]1(C)C(=O)C(C2=NS(=O)(=O)c3cc(NS(C)(=O)=O)ccc3N2)=C([O-])c2ccccc21.[Na+]
0.7

Consider next the molecule CC(C)CC[C@@]1(C)C(=O)C(C2=NS(=O)(=O)c3cc(NS(C)(=O)=O)ccc3N2)=C([O-])c2ccccc21.[Na+] in the same way.
1.3

###

experiment: Elimination half life in monkey at 5 mg/kg, iv; assay type: ADME, organism-based, Macaca mulatta; parameters: dose 5 mg/kg, route intravenous; conditions: rhesus monkey, in vivo, read-out: beta t1/2 (converted)
observation type: half-life (h)
Lab book: enter the figure in h, no units written.

INSERT INTO results (test_smiles, observation_type, unit_text, endpoint_result) VALUES
  ('CC(C)CC[C@@]1(C)C(=O)C(C2=NS(=O)(=O)c3cc(NS(C)(=O)=O)ccc3N2)=C([O-])c2ccccc21.[Na+]', 'half-life', 'h', 0.7);

# half-life lookup, item CC(C)(C)CC[C@@]1(C)C(=O)C(C2=NS(=O)(=O)c3cc(NS(C)(=O)=O)ccc3N2)=C([O-])c2ccccc21.[Na+]
2.1

###

test: Aqueous solubility in 50 mM phosphate buffer at pH 7.4; type: physicochemical
observation type: solubility (µg/mL)
Express your answer in µg/mL, writing the number without its unit.

What value of solubility has been reported for the following molecule? CC(C)(C)CC[C@@]1(C)C(=O)C(C2=NS(=O)(=O)c3cc(NS(C)(=O)=O)ccc3N2)=C([O-])c2ccccc21.[Na+]
110

###

experiment: Elimination half life in dog at 5 mg/kg, iv; assay type: ADME, organism-based, Canis lupus familiaris; parameters: dose 5 mg/kg, route intravenous; conditions: in vivo, read-out: beta t1/2 (converted)
observation type: half-life (h)
Provide only the numeric value, understood in h.

Give its half-life value. Item: CC(C)CC[C@@]1(C)C(=O)C(C2=NS(=O)(=O)c3cc(NS(C)(=O)=O)ccc3N2)=C([O-])c2ccccc21.[Na+]
2.7

###

# maps each entry to its clearance
assay: Plasma clearance in rat at 5 mg/kg, iv; assay type: ADME, organism-based; set-up: dose 5 mg/kg, route intravenous

Look up clearance: CC(C)CC[C@@]1(C)C(=O)C(C2=NS(=O)(=O)c3cc(NS(C)(=O)=O)ccc3N2)=C([O-])c2ccccc21.[Na+]
16 mL/min/kg

Record: CC(C)(C)CC[C@@]1(C)C(=O)C(C2=NS(=O)(=O)c3cc(NS(C)(=O)=O)ccc3N2)=C([O-])c2ccccc21.[Na+]
5.67 mL/min/kg
